Assay: Dissolution (release) rate of the ingredients of a solid water treatment tablet in standard cooling water
Type: physicochemical
Conditions: Example 2 tablet coated with polyethylene oxide, time 61 minutes
quantityName: Release Rate (mg/min)
Answers are plain numbers, in mg/min.

What value of measured Release Rate is listed for O=S(=O)([O-])c1cc(S(=O)(=O)[O-])c2ccc3c(S(=O)(=O)[O-])cc(S(=O)(=O)[O-])c4ccc1c2c43.[Na+].[Na+].[Na+].[Na+] [PTSA] ?
0.33

====

Assay: Dissolution (release) rate of the ingredients of a solid water treatment tablet in standard cooling water
Format: physicochemical
Conditions: Example 2 tablet coated with polyethylene oxide, time 40 minutes
quantityName: Release Rate (mg/min)
Numbers only, in mg/min.

{"columns": ["molecule", "Release Rate, mg/min"],
 "data": [
  ["c1ccc2[nH]nnc2c1 [BZT, benzotriazole]", 0.2]
]}

Alright, here's another molecule for you.
What value of measured Release Rate is listed for CC(O)(P(=O)(O)O)P(=O)(O)O [HEDP] ?
1.2

====

Assay: Dissolution (release) rate of the ingredients of a solid water treatment tablet in standard cooling water
Assay type: physicochemical
Conditions: Example 2 tablet coated with polyethylene oxide, time 110 minutes
quantityName: Release Rate (mg/min)
Answers are plain numbers, in mg/min.

What value of measured Release Rate is listed for CC(O)(P(=O)(O)O)P(=O)(O)O ?
1.7
